test_system: T1, 5-Helix (HIV-1 group M subtype B, HXB2 (gp41 …, stabilised))
T1 construct: also called designed protein based on HIV-1 gp41
method_summary: ELISA
condition_details: one partner purified
observed_property: phage ELISA signal OD450 (OD450)
Numeric only. Scale: OD450

// worked examples, phage ELISA signal OD450 included
{"columns": ["binder", "phage ELISA signal OD450, OD450"],
 "data": [
  ["25C10 bivalent scFv on phage (scFv, V domains shown) VH: QVQLVQSGAEVRKPGASVKVSCKASGDTFSSYAISWVRQAPGQGLEWMGGIIPIFGTANYAQAFQGRVTITANESTSTAYMELSSLRSEDTAIYYCARDNPTLLGSDYWGAGTLVTVSS VL: DIQMTQSPSTLSASIGDRVTITCRASENIYGNLAWYQQKPGKAPKLLISRASRLASGAPSRFSGSGSGTDFTLTISSLQPDDFATYYCQQRYTYPLTFGGGTKLEIK", 3.2],
  ["16E8 bivalent scFv on phage (scFv, V domains shown) VH: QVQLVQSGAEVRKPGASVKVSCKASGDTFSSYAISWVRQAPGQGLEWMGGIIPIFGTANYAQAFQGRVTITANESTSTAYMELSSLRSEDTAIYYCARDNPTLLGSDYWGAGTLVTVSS VL: DIQMTQSPSTLSASIGDRVTITCRASESIYGSLAWYQQKPGKAPKLLISHASHLASGAPSRFSGSGSGTDFTLTISSLQPDDFATYYCQQNDTYPHTFGGGTKLEIK", 3],
  ["2H10 bivalent scFv on phage (scFv, V domains shown) VH: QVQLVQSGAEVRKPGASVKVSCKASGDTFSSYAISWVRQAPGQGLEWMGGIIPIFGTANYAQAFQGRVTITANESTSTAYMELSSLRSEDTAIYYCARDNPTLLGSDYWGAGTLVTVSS VL: DIQMTQSPSTLSASIGDRVTITCRASEDIYRSLAWYQQKPGKAPKLLISRASRLASGAPSRFSGSGSGTDFTLTISSLQPDDFATYYCQQYSNYPLTFGGGTKLEIK", 1.9]
]}

Query string: Request the reported phage ELISA signal OD450 associated with 16F6 bivalent scFv on phage (scFv, V domains shown) VH: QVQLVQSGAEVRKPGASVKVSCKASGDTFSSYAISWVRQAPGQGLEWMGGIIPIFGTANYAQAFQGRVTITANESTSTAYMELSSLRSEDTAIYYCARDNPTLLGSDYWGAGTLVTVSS VL: DIQMTQSPSTLSASIGDRVTITCRASESISSILAWYQQKPGKAPKLLISNASRLASGAPSRFSGSGSGTDFTLTISSLQPDDFATYYCQQRSNYPFTFGGGTKLEIK
Result string: 3

Query string: Request the reported phage ELISA signal OD450 associated with 16E3 bivalent scFv on phage (scFv, V domains shown) VH: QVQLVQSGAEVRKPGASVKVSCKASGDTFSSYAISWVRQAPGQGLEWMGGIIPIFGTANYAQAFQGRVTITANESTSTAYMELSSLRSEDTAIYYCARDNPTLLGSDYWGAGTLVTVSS VL: DIQMTQSPSTLSASIGDRVTITCRASEGIRYGLAWYQQKPGKAPKLLISRASRLASGAPSRFSGSGSGTDFTLTISSLQPDDFATYYCQQHYAYPHTFGGGTKLEIK
Result string: 3
